# Tested on: glycogen synthase kinase-3 (GSK3A per assay name; protocol says GSK3B)
# assay.details: GSK3 binders on small-molecule microarrays, primary screen, biochemical, small-molecule microarray, 635 nm fluorescence, GSK3A (AID 1103); further: the record names both GSK3A and GSK3B
# experimental.context: small-molecule microarray binding, fluorescence 635 nm; higher = more signal
metric.name: composite z-score
// no unit string in output, number only

Guide cases for composite z-score, answers given:
> print(dat)
                                   molecule  reported.result
1  C[C@@H]1CC[C@H]2C(=O)O[C@@H](COc3ccc(C(C)(C)C)cc3)CN2[C@H]1c1ccc(Br)cc1            0.158
2  O=C1C2=CC[C@H]3C(=O)N(C[C@@H]4CCCO4)C(=O)[C@H]3[C@H]2[C@H](O)[C@@H]2O[C@H]12            0.443
3  COC(=O)C(C(=O)OC)C1CCCC(=O)C1 (centres undefined)            0.772

Here's the next entry for you.
The measured composite z-score associated with CO[C@@H]1COC(=O)[C@H](CCSC)NC(=O)CC=C[C@@H](C)COC(=O)[C@@H]2CCCN2C(=O)CC=C[C@H]1C reads 0.745
